# Tested on: OVCAR-3
# test_summary: Growth inhibition of human OVCAR-3 cells at 10 uM incubated for 48 hrs by sulforhodamine B assay relative to control
# Format: functional
# assay_conditions: read-out: GI
measurement_type: inhibition of growth at 10 µM (%)
Give your result in % as a bare value.

INSERT INTO measurements (chem_smiles, system, measurement_type, readout_number) VALUES
  ('COc1cc2nc(-c3ccc(Cl)cc3)cc(OCCN3CCCC3)c2cc1OC', 'OVCAR-3', 'inhibition of growth at 10 µM', 3),
  ('COc1cc2nc(-c3ccc(C(F)(F)F)cc3)cc(OCCN3CCCCC3)c2cc1OC', 'OVCAR-3', 'inhibition of growth at 10 µM', 13),
  ('COc1cc2nc(-c3ccc(Cl)cc3)cc(OCCN3CCCCC3)c2cc1OC', 'OVCAR-3', 'inhibition of growth at 10 µM', 3);

query: # get_value(readout= inhibition of growth at 10 µM, system= OVCAR-3) for COc1cc2nc(-c3ccco3)cc(OCCCN3CCC(O)CC3)c2cc1OC
result: 46

query: # get_value(readout= inhibition of growth at 10 µM, system= OVCAR-3) for COc1cc2nc(-c3ccc(Cl)cc3)cc(OCCN3CCOCC3)c2cc1OC
result: 3

query: # get_value(readout= inhibition of growth at 10 µM, system= OVCAR-3) for COc1cc2nc(-c3ccc(Cl)cc3)cc(OCCN3CCC(O)CC3)c2cc1OC
result: 3

query: # get_value(readout= inhibition of growth at 10 µM, system= OVCAR-3) for COc1cc2nc(-c3ccc(Cl)cc3)cc(OCCCN3CCCCC3)c2cc1OC
result: 62

query: # get_value(readout= inhibition of growth at 10 µM, system= OVCAR-3) for COc1cc2nc(-c3ccc(Cl)cc3)cc(OCCCN3CCC(O)CC3)c2cc1OC
result: 62

query: # get_value(readout= inhibition of growth at 10 µM, system= OVCAR-3) for COc1cc2nc(-c3ccsc3)cc(OCCCN3CCC(O)CC3)c2cc1OC
result: 32

query: # get_value(readout= inhibition of growth at 10 µM, system= OVCAR-3) for COc1cc2nc(-c3cccs3)cc(OCCCN3CCC(O)CC3)c2cc1OC
result: 20

Hey, just so you know, these numbers are from ChEMBL document CHEMBL4732237.
